# Test system: TK-10
# assay.summary: NCI tumour cell line growth inhibition, 48 h
Calls of active or inactive are those of the source. Rule as the data show it: active = GI50 up to about 1.1 µM and inactive = higher.
Outcomes: active, inactive

{"columns": ["compound", "class"],
 "data": [
  ["O=C1C=CC=C/C1=C1\\N=C(c2ccccc2OCC(=O)c2ccccc2)SS1", "inactive"],
  ["Cc1[nH]c2ccccc2c1/C=C/c1c(C)[nH]c2ccccc12", "inactive"],
  ["Cc1cc(Cl)ccc1C1OC(=O)c2c1ccc1ccccc21 (centres undefined)", "inactive"],
  ["O=C1OC(CN2CCOCC2)CN1/N=C/c1ccc([N+](=O)[O-])o1 (centres undefined)", "inactive"],
  ["COC(=O)CCC(=O)C(C#N)c1ccc(Cl)cc1Cl (centres undefined)", "inactive"],
  ["O=C(O)[C@H](c1ccccc1)[C@@H](C(=O)O)c1ccccc1", "inactive"],
  ["CC(=O)/N=C1\\N/C(=C/c2cc([N+](=O)[O-])ccc2O)CN1C", "inactive"],
  ["O=c1[nH]c(=O)n(COC(CO)CO)cc1-c1ccccc1", "inactive"],
  ["CC(=O)O[C@H]1C(=O)[C@@]2(C)[C@H]([C@H](OC(=O)c3ccccc3)[C@]3(O)C[C@H](OC(=O)[C@H](O)[C@@H](NC(=O)C(C)(C)C)c4ccccc4)C(C)=C1C3(C)C)[C@]1(OC(C)=O)CO[C@@H]1C[C@@H]2O", "active"]
]}

* * *

# Tested on: OVCAR-4
# assay.summary: NCI tumour cell line growth inhibition, 48 h
Activity calls are given as the source filed them. Rule as the data show it: active = GI50 up to about 1.1 µM and inactive = higher.

{"columns": ["compound", "GI50"],
 "data": [
  ["COc1cccc(-c2nc(-c3cnccn3)n(C3OC(CO)C(O)C3O)n2)c1 (stereo not given)", "> 100 µM (inactive)"],
  ["CC1(C)OC[C@H](C(=N)OCc2ccccc2)O1", "> 100 µM (inactive)"],
  ["Cc1c2cccc-2c2cc(O)c3ccccc3c2n1-c1ccc(N(C)C)cc1", "3.37 µM (inactive)"],
  ["O=C1c2ccccc2NC(c2cc(Cl)cc(Cl)c2O)N1CCc1ccccn1 (stereo not given)", "36.8 µM (inactive)"],
  ["COc1ccc(-c2cc(=O)c3c(O)c(OC)c(OC)c(OC)c3o2)cc1", "> 100 µM (inactive)"],
  ["CCOC(=O)c1ccc(/C(C)=N/NC(N)=S)cc1", "> 100 µM (inactive)"],
  ["N=C(N)N/N=C/c1c(-c2ccc(N)cc2)nc2sccn12", "35.3 µM (inactive)"],
  ["Brc1ccc2c(-c3nc(-c4c[nH]c5ccc(Br)cc45)cs3)c[nH]c2c1", "9.33 µM (inactive)"],
  ["O=[N+]([O-])c1cccc(C(O)/C(=N/Nc2ccccc2)C2Nc3ccc([N+](=O)[O-])cc3N=C2O)c1 (stereo not given)", "78.5 µM (inactive)"],
  ["CCCN(CCC)C(=O)c1nc(N)nc(-c2ccc(OC)cc2)c1-c1ccc(OC)cc1", "47.9 µM (inactive)"]
]}

* * *

# System: HOP-92
# assay.summary: NCI tumour cell line growth inhibition, 48 h
Active and inactive are the calls of the source. Cut-off read from the data, not from the text of the source: active = GI50 up to about 1.1 µM and inactive = higher.
Outcomes: Yes = active, No = inactive

{"columns": ["compound", "class"],
 "data": [
  ["O=c1cc(/C=C/c2ccc(O)c(O)c2)oc(/C=C/c2ccc(O)c(O)c2)c1", "No"],
  ["O=S1(=O)OCCOS(=O)(=O)C1Cc1cccc2ccccc12", "No"],
  ["Cc1[nH]c(-c2ccccc2)c2nc(N(C)C)oc(=O)c12", "No"],
  ["CC12CCC(=O)N1c1cnccc1N2 (centres undefined)", "No"],
  ["CN1C(=O)C(C#N)C2C[C@@]1(C)Oc1ccccc12 (some centres undefined)", "No"],
  ["Nc1c(S(=O)(=O)O)cc(S(=O)(=O)O)c2ccc(/N=N/c3ccc(/C=C/c4ccc(/N=N/c5ccc6c(S(=O)(=O)O)cc(S(=O)(=O)O)c(N)c6c5O)cc4S(=O)(=O)O)c(S(=O)(=O)O)c3)c(O)c12", "No"],
  ["COc1ccc(-c2cc(=O)c3c(O)c(OC)c(OC)c(OC)c3o2)cc1 [GARDENIN B]", "No"],
  ["CCOC(=O)C(C)(C)/C=C\\C(Cl)=C(Cl)Cl", "No"],
  ["C[C@]12CC[C@@H]3c4ccc(OC(=O)N(CCCl)CCCl)cc4CC[C@H]3[C@@H]1CC[C@@H]2O [ESTRAMUSTINE]", "Yes"],
  ["CCOC(=O)c1ccc(/C(C)=N/NC(N)=S)cc1", "No"],
  ["COC(=O)CCC(NC(=O)OC(C)(C)C)C(=O)NC(Cc1ccc(NC(=O)CCCC(C)=O)cc1)C(=O)NC(CCC(=O)OC)C(=O)OC (centres undefined)", "No"],
  ["COc1cc(C2S/C(=C/c3ccccc3)C(=O)N2c2cc(Cl)c(Cl)cc2Cl)cc(OC)c1OC (centres undefined)", "No"],
  ["Nc1nc(S)nc(C(=O)Nc2nccs2)c1-c1ccccc1", "No"],
  ["Cc1ccccc1/N=N/c1c(O)ccc2ccccc12", "No"],
  ["O=[N+]([O-])C1Cc2ccccc2OC1c1ccccc1 (centres undefined)", "No"],
  ["CCOC(=O)NC(Nc1ccc(C)cc1)(C(F)(F)F)C(F)(F)F", "No"],
  ["O=C(/C=C/c1ccc(Oc2cc(C(=O)/C=C/c3ccc(O)cc3)c(O)cc2O)cc1)c1ccc(O)cc1O [RHUSCHALCONE II]", "No"],
  ["COc1cc2c(oc(=O)c3c4oc([Si](C)(C)C)cc4cc(OC)c23)c2cccc(OCc3ccccc3)c12", "No"],
  ["Fc1cccc(C2SCc3nc4ccccc4n32)c1 (centres undefined)", "No"]
]}

* * *

# System: T47D
# assay.summary: NCI tumour cell line growth inhibition, 48 h
Calls of active or inactive are those of the source. No stated cut-off is given here; in the data, active = GI50 up to about 1.1 µM and inactive = higher.
Outcomes: active, inactive

{"columns": ["molecule", "tested.system", "class"],
 "data": [
  ["CC[C@]1(Cc2ccc(OC)c(OC)c2)C=[N+]([O-])O[C@H](OC2CCCC2(c2ccccc2)c2ccccc2)[C@@H]1OC(=O)C(C)(C)C (some centres undefined)", "T47D", "inactive"],
  ["O=C1c2ccccc2NC(c2cc(Cl)cc(Cl)c2O)N1CCc1ccccn1 (centres undefined)", "T47D", "inactive"],
  ["C=CC(C)(C)n1cc(C2=C(O)C(=O)C(c3cn(C(C)(C)C=C)c4ccccc34)=C(OC(C)=O)C2=O)c2ccccc21", "T47D", "inactive"],
  ["CCOC(=O)C1=C(C#N)S(=O)(=O)c2c(oc(C)c2C)N1", "T47D", "inactive"],
  ["Clc1cc(OCc2nn3c(Cc4ccccc4)nnc3s2)c(Cl)cc1OCc1nn2c(Cc3ccccc3)nnc2s1", "T47D", "inactive"],
  ["Cc1cccc2c(NCCCN(C)C)c3c([N+](=O)[O-])ccc(C)c3nc12", "T47D", "active"],
  ["O=C1OC(CN2CCOCC2)CN1/N=C/c1ccc([N+](=O)[O-])o1 (centres undefined)", "T47D", "inactive"],
  ["C=CC(=O)c1ccc2c(c1)OCCOCCOCCOCCOCCO2", "T47D", "inactive"],
  ["CN1C(c2ccccc2)=CC(=O)C(O)=C(c2ccccc2)S1(=O)=O", "T47D", "inactive"]
]}

* * *

# Tested on: Malme-3M
# assay.summary: NCI tumour cell line growth inhibition, 48 h
The source made the active and inactive calls. No stated cut-off is given here; in the data, active = GI50 up to about 1.1 µM and inactive = higher.
Outcomes: yes (1) (active), no (0) (inactive)

{"columns": ["molecule", "class"],
 "data": [
  ["O=Cc1ccc(-c2nccc3c2[nH]c2ccccc23)o1", "no (0)"],
  ["COc1cccc2c(=O)c3c(O)c4cc(N(C)C)ccc4c(OC(C)=O)c3oc12", "no (0)"],
  ["O=C(NCc1cccc2ccccc12)N/N=C\\c1ccc(Cl)cc1", "no (0)"],
  ["Cc1nn(C)c(=O)c2nn(-c3ccccc3)c(C)c12", "no (0)"],
  ["Cc1ccccc1/N=N/c1c(O)ccc2ccccc12", "no (0)"],
  ["CCOC(=O)NC(Nc1ccc(C)cc1)(C(F)(F)F)C(F)(F)F", "no (0)"],
  ["COc1ccc(Nc2nc(N)c(C(=O)c3ccccc3)s2)cc1", "no (0)"],
  ["O=C(N/N=C/c1ccco1)c1cc(I)cc(I)c1O", "no (0)"],
  ["CCCN(CCC)C(=O)c1nc(N)nc(-c2ccc(OC)cc2)c1-c1ccc(OC)cc1", "no (0)"],
  ["CC(C)=NN/C(=N\\c1ccc(Cl)cc1)NS(=O)(=O)c1ccc(C)cc1", "no (0)"],
  ["COC(=O)CC1C2CC3C(C2=O)C13 (stereo not drawn)", "no (0)"],
  ["Cc1ccc(N2C3=C(CC4=C2CC(C)(C)CC4=O)C(=O)CC(C)(C)C3)cc1", "no (0)"],
  ["Cc1c2cccc-2c2cc(O)c3ccccc3c2n1-c1ccc(N(C)C)cc1", "no (0)"],
  ["Cc1ccc(S(=O)(=O)N/N=C/C(C)C)cc1", "no (0)"],
  ["CN(C)/C=N\\c1nc(=O)n(C2CCC(CO)O2)cc1F (stereo not drawn)", "no (0)"],
  ["CC(=O)OCCc1cccnc1/C=N/O", "no (0)"],
  ["COC(=O)c1ccc(NCc2cc(O)c3ccccc3c2O)cc1", "no (0)"],
  ["Cn1nc2ccc(Nc3cc(=O)[nH]c4ccc5nn(C)nc5c34)cc2n1", "no (0)"],
  ["Nc1ccc2c(c1)Nc1c3ccccc3nc3cccc-2c13", "no (0)"],
  ["Nc1n[nH]c2c1Cc1c(n(Cc3ccc(Cl)cc3)c3ccccc13)C(=O)N2", "no (0)"],
  ["CCOC(=O)C(C)(C)/C=C\\C(Cl)=C(Cl)Cl", "no (0)"],
  ["CC[n+]1c(/C=C/c2ccc(N(CCCl)CCCl)cc2)ccc2cc(NC(=O)/C=C/c3ccccc3)ccc21", "yes (1)"],
  ["Cc1c(C#N)c(N)[nH]c(=S)c1C#N", "no (0)"],
  ["Fc1cccc(C2SCc3nc4ccccc4n32)c1 (stereo not drawn)", "no (0)"],
  ["Cc1cc(=O)oc2c(CN(CCCl)CCCl)c(O)ccc12", "no (0)"],
  ["CCCCOCN/C(N)=N/C#N", "no (0)"],
  ["COc1ccc(C2SC(=N)Nc3c2c(C)nn3C(=O)c2ccccc2O)cc1OC (stereo not drawn)", "no (0)"],
  ["COc1ccc(C(SC2C(O)C(CO)OC2n2ccc(=O)[nH]c2=O)(c2ccccc2)c2ccc(OC)cc2)cc1 (stereo not drawn)", "no (0)"],
  ["N#Cc1nc(-c2ccccn2)oc1N", "no (0)"],
  ["CCOC1CCN(C(=O)c2ccccc2)O1 (stereo not drawn)", "no (0)"],
  ["CO[C@@H]1[C@H](O)CC[C@]2(CO2)[C@H]1[C@@]1(C)O[C@@H]1CC=C(C)C", "no (0)"],
  ["O=C(CN1CCN(C(=O)OCc2ccccc2)CCN(CC(=O)N2CCCCC2)CCN(C(=O)OCc2ccccc2)CC1)N1CCCCC1", "no (0)"],
  ["Clc1ccc(Cc2nc3ccccc3s2)c(Cl)c1", "no (0)"],
  ["Nc1nc(S)nc(C(=O)Nc2nccs2)c1-c1ccccc1", "no (0)"],
  ["COC(=O)CCC(NC(=O)OC(C)(C)C)C(=O)NC(Cc1ccc(NC(=O)CCCC(C)=O)cc1)C(=O)NC(CCC(=O)OC)C(=O)OC (stereo not drawn)", "no (0)"],
  ["CCOC(=O)CCC(NC(=O)c1ccc(Oc2nc3c(N)cc(C(F)(F)F)cc3nc2-c2ccccc2)cc1)C(=O)OCC (stereo not drawn)", "no (0)"],
  ["C=C1C(=O)O[C@@H]2C(=O)[C@@H](C)[C@@H]3C=CC(=O)[C@@]3(C)[C@@H](OC(=O)/C(C)=C\\C)[C@H]12", "yes (1)"],
  ["CC12CC(=O)OC(Cc3ccccc31)O2 (stereo not drawn)", "no (0)"],
  ["C/C(=C\\CC[C@]1(C)OC(C)(C)OC1CC/C(C)=C/CO[Si](c1ccccc1)(c1ccccc1)C(C)(C)C)CC/C=C/CO[Si](C)(C)C(C)(C)C (stereo partly drawn)", "no (0)"],
  ["Clc1cccc(/C=N/C23CC4CC(CC(C4)C2)C3)c1Cl", "no (0)"],
  ["CCN1C/C(=C\\c2ccc(Cl)cc2)c2nc(N)c(C#N)c(-c3ccc(Cl)cc3)c2C1", "no (0)"],
  ["O=C(CC(=O)Nc1ccccc1O)Nc1ccccc1O", "no (0)"],
  ["c1ccc(P(=C2c3ccccc3-c3ccccc32)(c2ccccc2)c2ccccc2)cc1", "no (0)"]
]}

Hello, the source for this data is ChEMBL document CHEMBL1201862, in case you need it.
